Assayed system: Hco-ACC-2 F200Y (Haemonchus contortus, UniProt A0A219KWM7, F200Y)
Protocol summary: Two-electrode voltage clamp of Hco-ACC-2 F200Y mutant in Xenopus laevis oocytes
Type: cell-based
Condition context: EC50, F200Y mutant
Parameter: EC50
Report field: quantity (unit follows the number).

Please give the measured EC50 for this compound: CN1CCC[C@H]1c1cccnc1 [Nicotine]
277 µM

###

Assayed system: Hco-ACC-2 F200Y (Haemonchus contortus, UniProt A0A219KWM7, F200Y)
Sequence (A0A219KWM7 18-443 F200Y): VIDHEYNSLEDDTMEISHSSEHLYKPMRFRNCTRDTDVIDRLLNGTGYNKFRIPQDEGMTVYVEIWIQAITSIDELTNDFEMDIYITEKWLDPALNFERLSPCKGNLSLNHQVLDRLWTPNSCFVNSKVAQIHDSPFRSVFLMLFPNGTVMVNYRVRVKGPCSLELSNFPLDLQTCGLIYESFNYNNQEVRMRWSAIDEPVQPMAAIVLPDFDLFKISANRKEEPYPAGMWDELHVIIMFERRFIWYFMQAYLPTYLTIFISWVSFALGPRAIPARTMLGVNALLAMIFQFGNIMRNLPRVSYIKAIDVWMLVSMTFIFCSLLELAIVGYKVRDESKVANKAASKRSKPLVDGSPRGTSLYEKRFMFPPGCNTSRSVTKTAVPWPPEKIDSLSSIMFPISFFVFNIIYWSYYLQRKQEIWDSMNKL
Protocol summary: Two-electrode voltage clamp of Hco-ACC-2 F200Y mutant in Xenopus laevis oocytes
Assay type: cell-based
Condition context: EC50 ± standard error, F200Y, F200Y mutant, n ≥ 5 oocytes
Structures can show the parent of a compound that is named as a salt.
Parameter: pEC50
To interpret pEC50, take it as minus log10 of a concentration measured in moles per litre.

Before answering, review these 5 worked examples.
{"Molecule": "C[N+](C)(C)CCOC(N)=O [Carbachol, Carbamoylcholine Chloride]", "pEC50": 5.01}
{"Molecule": "CC(C[N+](C)(C)C)OC(N)=O (stereo not drawn) [Urecholine, Carbamyl-β-methylcholine chloride]", "pEC50": 4.09}
{"Molecule": "CC(=O)OC(C)C[N+](C)(C)C (stereo not drawn) [Methacholine, Acetyl-β-methylcholine Chloride]", "pEC50": 4.70}
{"Molecule": "CN1CCCN=C1/C=C/c1cccs1 [Pyrantel, Pyrantel Citrate Salt]", "pEC50": 4.36}
{"Molecule": "c1ccc([C@H]2CN3CCSC3=N2)cc1 [Levamisole, Levamisole Hydrochloride]", "pEC50": 4.41}

Query molecule follows.
// map C[N+](C)(C)CCO [Choline, Choline Chloride] to recorded pEC50 (system: Hco-ACC-2 F200Y (Haemonchus contortus, UniProt A0A219KWM7, F200Y))
3.19
